The measurements presented in this section are drawn from paper PMC8198038.

- Tested on: HepG2 (hepatocellular cancer) cells
- Assay Method Text: MTT assay, HepG2 cells
- Format: cell-based, human
- Measurement Conditions: Homo sapiens, HepG2, 48 h, read-out: IC50 (mean ± SD), HepG2, MTT
Observed Property: IC50

O=C(O)CCc1nc(-c2ccccc2)c(-c2ccccc2)o1 [HL1, reference compound] has a reported IC50 of > 100 µM

* * *

- Tested on: HepG2 (hepatocellular cancer) cells
- Assay Method Text: CV (crystal violet) assay, HepG2 cells
- Type: cell-based, human
- Measurement Conditions: Homo sapiens, HepG2, 48 h, read-out: IC50 (mean ± SD), HepG2, CV
Observed Property: IC50

O=C(O)CCc1nc(-c2ccccc2)c(-c2ccccc2)o1 [HL1, reference compound] has a reported IC50 of > 100 µM
